Test system: fibrin- and LPS-induced microglia activation
procedure summary: cells
Assay type: cell-based, rat
measurement parameters: quadrant by fibrin and LPS inhibition in HTS of 1907 compounds
Structures can show the parent of a compound that is named as a salt.
measured endpoint: Quadrant (FIG. 5b)

Sample answers from the record:
1) CCN(CC)C(=S)SSC(=S)N(CC)CC [Disulfiram] :: Q2
2) Nc1ccn([C@@H]2CS[C@H](CO)O2)c(=O)n1 [Lamivudine] :: Q4
3) CC(C)[C@H]1CC[C@H](C(=O)N[C@H](Cc2ccccc2)C(=O)O)CC1 [Nateglinide] :: Q4
4) CCN(CC)Cc1cc(Nc2ccnc3cc(Cl)ccc23)ccc1O [Amodiaquine Dihydrochloride] :: Q1
5) Nc1ccc(S(=O)(=O)Nc2cnc3ccccc3n2)cc1 [Sulfaquinoxaline sodium, reference compound] :: Q2

Dear colleague, could you please provide Quadrant (FIG. 5b) for the molecules listed below?
1. CCCCCN(CCCCC)C(=O)C(CCC(=O)O)NC(=O)c1ccc(Cl)c(Cl)c1 (stereo not drawn) [Lorglumide Sodium]
2. Cc1cc(C(C)(C)C)c(O)c(C)c1CC1=NCCN1 [Oxymetazoline]

["Q4", "Q4"]

Dear colleague, could you please provide Quadrant (FIG. 5b) for the molecules listed below?
1. CC(C)(C)NC[C@H](O)c1ccc(O)c(CO)c1 [Levosalbutamol]
2. OCCOCCN1CCN(C(c2ccccc2)c2ccc(Cl)cc2)CC1 (stereo not drawn) [Hydroxyzine]
3. CC(=O)Oc1cccc(C)c1 [Meta-cresyl Acetate]
4. CC(=O)OCC(=O)[C@@]12N=C(C)O[C@@H]1C[C@H]1[C@@H]3CCC4=CC(=O)C=C[C@]4(C)[C@H]3[C@@H](O)C[C@@]12C [Deflazacort, reference compound]

["Q4", "Q4", "Q4", "Q2"]

Dear colleague, could you please provide Quadrant (FIG. 5b) for the molecules listed below?
1. N#Cc1nn(-c2c(Cl)cc(C(F)(F)F)cc2Cl)c(N)c1[S+]([O-])C(F)(F)F (stereo not drawn) [Fipronil]
2. COc1ccc(C(=O)c2ccccc2)c(O)c1 [Oxybenzone]
3. N[C@@H](Cc1ccc(N(CCCl)CCCl)cc1)C(=O)O [Melphalan]

Q4
Q4
Q4
